targetOfAssay: CYP1A2 (Homo sapiens (Human), UniProt P05177)
Sequence (P05177 whole entry): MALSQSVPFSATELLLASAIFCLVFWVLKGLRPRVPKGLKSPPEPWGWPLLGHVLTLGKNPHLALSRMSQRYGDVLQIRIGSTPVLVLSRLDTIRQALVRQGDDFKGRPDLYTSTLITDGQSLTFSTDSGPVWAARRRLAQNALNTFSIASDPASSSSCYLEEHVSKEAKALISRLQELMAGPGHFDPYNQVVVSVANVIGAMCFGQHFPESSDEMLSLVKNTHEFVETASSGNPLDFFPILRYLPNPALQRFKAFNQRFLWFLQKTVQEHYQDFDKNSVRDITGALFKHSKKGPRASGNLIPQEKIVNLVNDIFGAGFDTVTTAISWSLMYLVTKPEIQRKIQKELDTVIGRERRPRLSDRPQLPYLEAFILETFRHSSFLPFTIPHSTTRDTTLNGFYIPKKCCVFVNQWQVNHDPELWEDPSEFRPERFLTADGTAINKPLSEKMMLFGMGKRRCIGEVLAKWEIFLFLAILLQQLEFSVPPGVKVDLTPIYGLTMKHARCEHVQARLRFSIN
procedureDetails: CYP1A2 inhibition in human liver microsomes
Type: in vitro ADME
conditionsUsed: microsomes

>  <itemSmiles>
COc1cc(OC(F)(F)F)ccc1-c1cn2c(C(F)(F)F)nnc2cn1

>  <IC50>
< 1 µM

$$$$
>  <itemSmiles>
Fc1cc(-c2cn3c(C(F)(F)F)nnc3cn2)ccc1OC(F)(F)F

>  <IC50>
< 1 µM

$$$$
>  <itemSmiles>
FC(F)Oc1ccc(-c2ccc3nnc(C(F)(F)F)n3n2)cc1

>  <IC50>
< 1 µM

$$$$
>  <itemSmiles>
Fc1cc(C(F)(F)F)ccc1-c1cn2c(C(F)(F)F)nnc2cn1

>  <IC50>
< 1 µM

$$$$
>  <itemSmiles>
FC(F)c1nnc2cnc(-c3ccc(OC(F)(F)F)cc3)cn12

>  <IC50>
< 1 µM

$$$$
>  <itemSmiles>
FC(F)(F)c1ccc(-c2ccc3nnc(C(F)(F)F)n3n2)cc1

>  <IC50>
< 1 µM

$$$$
>  <itemSmiles>
FC(F)(F)c1ccc(-c2cn3c(C(F)(F)F)nnc3cn2)cc1

>  <IC50>
< 1 µM

$$$$
>  <itemSmiles>
COc1cc(OC(F)(F)F)ccc1-c1cn2c(C(F)F)nnc2cn1

>  <IC50>
< 1 µM

$$$$
>  <itemSmiles>
COC(F)(F)c1nnc2cnc(-c3ccc(OC(F)(F)F)cc3)cn12

>  <IC50>
< 1 µM

$$$$
>  <itemSmiles>
C[C@@H](Oc1ncc(-c2cn3c(C(F)F)nnc3cn2)cc1F)C(F)(F)F

>  <IC50>
> 30 µM

$$$$
>  <itemSmiles>
Cc1cc(-c2ccc3nnc(C(F)(F)F)n3n2)ccc1C(F)(F)F

>  <IC50>
< 1 µM

$$$$
>  <itemSmiles>
FC(F)(F)OCc1ccc(-c2ccc3nnc(C(F)(F)F)n3n2)cc1

>  <IC50>
< 1 µM

$$$$
>  <itemSmiles>
COCc1cc(OC(F)(F)F)ccc1-c1cn2c(C(F)(F)F)nnc2cn1

>  <IC50>
1 to 15 µM

$$$$
